molecular target: UGT1A1 (Homo sapiens, UniProt P22309); experiment: Inhibition of raloxifene glucuronidation by recombinant UGT1A1 Supersomes; conditions: human, Supersomes with recombinant human UGT1A1, pH 7.5, probe raloxifene 50 μM, formation of glucuronide G1, % of control metabolism, raloxifene G1, UGT1A1; inhibitor 5 μM
assay_readout: activity at 15 min, 5 µM (%)

[[record]]
smiles_code = "O=C(OC[C@H]1O[C@@H](OC(=O)c2cc(O)c(O)c(OC(=O)c3cc(O)c(O)c(O)c3)c2)[C@H](OC(=O)c2cc(O)c(O)c(OC(=O)c3cc(O)c(O)c(O)c3)c2)[C@@H](OC(=O)c2cc(O)c(O)c(OC(=O)c3cc(O)c(O)c(O)c3)c2)[C@@H]1OC(=O)c1cc(O)c(O)c(OC(=O)c2cc(O)c(O)c(O)c2)c1)c1cc(O)c(O)c(OC(=O)c2cc(O)c(O)c(O)c2)c1"
assay_readout = "activity at 15 min, 5 µM"
endpoint_value = 39


====

Target: UGT1A1 (Homo sapiens, UniProt P22309)
Sequence (P22309 26-533): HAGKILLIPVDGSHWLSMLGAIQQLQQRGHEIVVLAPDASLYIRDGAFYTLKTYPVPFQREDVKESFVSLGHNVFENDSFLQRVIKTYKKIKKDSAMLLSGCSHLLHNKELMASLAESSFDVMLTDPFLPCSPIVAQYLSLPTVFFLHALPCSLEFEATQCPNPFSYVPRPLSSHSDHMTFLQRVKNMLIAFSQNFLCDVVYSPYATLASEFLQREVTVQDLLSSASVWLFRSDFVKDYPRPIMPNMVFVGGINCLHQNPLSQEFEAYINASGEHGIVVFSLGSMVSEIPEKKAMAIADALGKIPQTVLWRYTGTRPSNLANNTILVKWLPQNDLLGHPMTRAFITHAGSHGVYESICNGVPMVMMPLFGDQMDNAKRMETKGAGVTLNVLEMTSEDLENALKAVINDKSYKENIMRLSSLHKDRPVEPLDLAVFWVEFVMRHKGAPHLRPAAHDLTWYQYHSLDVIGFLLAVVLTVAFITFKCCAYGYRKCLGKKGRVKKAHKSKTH
Assay: in vitro
Settings: pH 7.5, Inhibition of raloxifene glucuronidation, G1, UGT1A1
assay_readout: activity at 15 min, 25 µM (%)

[[record]]
molecule = "O=c1c(O)c(-c2ccc(O)c(O)c2)oc2cc(O)cc(O)c12"
assay_readout = "activity at 15 min, 25 µM"
endpoint_value = 13

[[record]]
molecule = "O=C(O[C@@H]1Cc2c(O)cc(O)cc2O[C@@H]1c1ccc(O)c(O)c1)c1cc(O)c(O)c(O)c1 [Epicatechin gallate]"
assay_readout = "activity at 15 min, 25 µM"
endpoint_value = 39

[[record]]
molecule = "COc1cc(C2Oc3cc([C@H]4Oc5cc(O)cc(O)c5C(=O)[C@@H]4O)ccc3OC2CO)ccc1O (stereo partly shown)"
assay_readout = "activity at 15 min, 25 µM"
endpoint_value = 46

[[record]]
molecule = "O=C(O)c1cc(-c2ccc(F)cc2F)ccc1O [Diflunisal, reference compound]"
assay_readout = "activity at 15 min, 25 µM"
endpoint_value = 53


====

Target: UGT1A1 (Homo sapiens, UniProt P22309)
Sequence (P22309 26-533): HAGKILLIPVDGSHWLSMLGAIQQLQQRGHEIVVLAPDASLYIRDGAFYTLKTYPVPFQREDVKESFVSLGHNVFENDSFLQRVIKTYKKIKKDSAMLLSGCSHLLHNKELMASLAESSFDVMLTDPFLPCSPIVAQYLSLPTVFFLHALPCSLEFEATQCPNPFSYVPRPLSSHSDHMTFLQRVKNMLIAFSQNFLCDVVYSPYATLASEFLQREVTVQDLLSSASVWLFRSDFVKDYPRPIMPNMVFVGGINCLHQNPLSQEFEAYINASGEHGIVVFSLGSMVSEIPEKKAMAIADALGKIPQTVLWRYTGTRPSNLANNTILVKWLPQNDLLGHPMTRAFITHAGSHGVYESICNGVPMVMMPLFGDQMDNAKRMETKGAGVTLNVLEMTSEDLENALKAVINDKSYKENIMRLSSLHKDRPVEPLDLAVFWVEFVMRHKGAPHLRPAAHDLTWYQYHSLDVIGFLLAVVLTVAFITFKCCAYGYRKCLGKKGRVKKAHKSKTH
Experiment: Inhibition of raloxifene glucuronidation by recombinant UGT1A1 Supersomes
Details: human, Supersomes with recombinant human UGT1A1, pH 7.5, probe raloxifene 50 μM, formation of glucuronide G2, % of control metabolism, raloxifene G2, UGT1A1; inhibitor 5 μM
assay_readout: activity at 15 min, 5 µM (%)

[[record]]
compound = "O=C(OC[C@H]1O[C@@H](OC(=O)c2cc(O)c(O)c(OC(=O)c3cc(O)c(O)c(O)c3)c2)[C@H](OC(=O)c2cc(O)c(O)c(OC(=O)c3cc(O)c(O)c(O)c3)c2)[C@@H](OC(=O)c2cc(O)c(O)c(OC(=O)c3cc(O)c(O)c(O)c3)c2)[C@@H]1OC(=O)c1cc(O)c(O)c(OC(=O)c2cc(O)c(O)c(O)c2)c1)c1cc(O)c(O)c(OC(=O)c2cc(O)c(O)c(O)c2)c1 [Tannic acid]"
endpoint_value = 38


====

We begin with a simple list: items and their reported % of control metabolism, raloxifene G1.
test system: UGT enzymes of human liver microsomes; test: Inhibition of raloxifene glucuronidation (G1, G2) in human liver microsomes; format: biochemical; conditions: raloxifene 50 μM; inhibitor 25 μM
assay_readout: % of control metabolism, raloxifene G1

[[record]]
compound = "C#C[C@]1(O)CC[C@H]2[C@@H]3CCc4cc(O)ccc4[C@H]3CC[C@@]21C [17-α-Ethinylestradiol, 17-α-ethinylestradiol, reference compound]"
test_system = "UGT enzymes of human liver microsomes"
assay_readout = "% of control metabolism, raloxifene G1"
endpoint_value = "66 (3) %"

[[record]]
compound = "O=C(O[C@@H]1Cc2c(O)cc(O)cc2O[C@@H]1c1ccc(O)c(O)c1)c1cc(O)c(O)c(O)c1 [Epicatechin gallate]"
test_system = "UGT enzymes of human liver microsomes"
assay_readout = "% of control metabolism, raloxifene G1"
endpoint_value = "48 (4) %"

[[record]]
compound = "O=C(O)c1cc(-c2ccc(F)cc2F)ccc1O [Diflunisal, reference compound]"
test_system = "UGT enzymes of human liver microsomes"
assay_readout = "% of control metabolism, raloxifene G1"
endpoint_value = "63 (3) %"

[[record]]
compound = "O=C(O[C@@H]1Cc2c(O)cc(O)cc2O[C@@H]1c1cc(O)c(O)c(O)c1)c1cc(O)c(O)c(O)c1 [Epigallocatechin gallate]"
test_system = "UGT enzymes of human liver microsomes"
assay_readout = "% of control metabolism, raloxifene G1"
endpoint_value = "56 (1) %"

[[record]]
compound = "O=c1c(O)c(-c2ccc(O)c(O)c2)oc2cc(O)cc(O)c12"
test_system = "UGT enzymes of human liver microsomes"
assay_readout = "% of control metabolism, raloxifene G1"
endpoint_value = "18 (1) %"

[[record]]
compound = "CCCOC(=O)c1cc(O)c(O)c(O)c1 [Propyl gallate]"
test_system = "UGT enzymes of human liver microsomes"
assay_readout = "% of control metabolism, raloxifene G1"
endpoint_value = "58 (4) %"

[[record]]
compound = "O=C(OC[C@H]1O[C@@H](OC(=O)c2cc(O)c(O)c(OC(=O)c3cc(O)c(O)c(O)c3)c2)[C@H](OC(=O)c2cc(O)c(O)c(OC(=O)c3cc(O)c(O)c(O)c3)c2)[C@@H](OC(=O)c2cc(O)c(O)c(OC(=O)c3cc(O)c(O)c(O)c3)c2)[C@@H]1OC(=O)c1cc(O)c(O)c(OC(=O)c2cc(O)c(O)c(O)c2)c1)c1cc(O)c(O)c(OC(=O)c2cc(O)c(O)c(O)c2)c1"
test_system = "UGT enzymes of human liver microsomes"
assay_readout = "% of control metabolism, raloxifene G1"
endpoint_value = "7 (1) %"

[[record]]
compound = "O=C(O[C@@H]1Cc2c(O)cc(O)cc2O[C@H]1c1cc(O)c(O)c(O)c1)c1cc(O)c(O)c(O)c1 [Gallocatechin gallate]"
test_system = "UGT enzymes of human liver microsomes"
assay_readout = "% of control metabolism, raloxifene G1"
endpoint_value = "62 (7) %"

[[record]]
compound = "CCCCCCCCOC(=O)c1cc(O)c(O)c(O)c1 [Octyl gallate]"
test_system = "UGT enzymes of human liver microsomes"
assay_readout = "% of control metabolism, raloxifene G1"
endpoint_value = "48 (6) %"

[[record]]
compound = "CC/C(=C(/CC)c1ccc(O)cc1)c1ccc(O)cc1 [Diethylstilbestrol, reference compound]"
test_system = "UGT enzymes of human liver microsomes"
assay_readout = "% of control metabolism, raloxifene G1"
endpoint_value = "36 (1) %"


====

system: UGT enzymes of human liver microsomes; construct: percentage of control metabolism, 7-HFC glucuronidation; percentage of control metabolism, 7-HFC glucuronidation; test: Inhibition of 7-HFC glucuronidation in human liver microsomes; format: biochemical; settings: inhibitor 200 μM
The reader will find reported percentage of control metabolism, 7-HFC glucuronidation values listed item by item below.
assay_readout: percentage of control metabolism, 7-HFC glucuronidation

[[record]]
compound = "COc1cc(CNC(=O)CCCCCCC(C)C)ccc1O [Dihydrocapsaicin]"
test_system = "UGT enzymes of human liver microsomes"
endpoint_value = "52 (2) %"

[[record]]
compound = "O=c1c(O)c(-c2ccc(O)c(O)c2)oc2cc(O)cc(O)c12"
test_system = "UGT enzymes of human liver microsomes"
endpoint_value = "53 (1) %"

[[record]]
compound = "CCCCCCCCC(=O)NCc1ccc(O)c(OC)c1 [N-Vanillylnonanamide]"
test_system = "UGT enzymes of human liver microsomes"
endpoint_value = "63 (2) %"

[[record]]
compound = "CCCCCCCCOC(=O)c1cc(O)c(O)c(O)c1 [Octyl gallate]"
test_system = "UGT enzymes of human liver microsomes"
endpoint_value = "6 (0) %"

[[record]]
compound = "Cc1cc(=O)oc2cc(O)ccc12 [4-Methylumbelliferone, reference compound]"
test_system = "UGT enzymes of human liver microsomes"
endpoint_value = "64 (1) %"

[[record]]
compound = "O=C(O)c1cc(-c2ccc(F)cc2F)ccc1O [Diflunisal, reference compound]"
test_system = "UGT enzymes of human liver microsomes"
endpoint_value = "65 (3) %"

[[record]]
compound = "O=C(O[C@@H]1Cc2c(O)cc(O)cc2O[C@@H]1c1ccc(O)c(O)c1)c1cc(O)c(O)c(O)c1 [Epicatechin gallate]"
test_system = "UGT enzymes of human liver microsomes"
endpoint_value = "55 (3) %"

